Values compiled from ChEMBL document CHEMBL3507680.

# protocolText: Human HepG2 cell viability assay in 384 well format
# Format: toxicity, cell-based
# Design: dose 125 nL, time 70.5 hour; concentration not given beside the values
# measurementContext: HepG2 cells, read-out: Inhibition

>  <compound>
CCCn1c(NCCc2ccccc2)nc2c(C)nn(C)c2c1=O

>  <cytotoxicity at 70.5 h (%)>
11.6

$$$$
>  <compound>
Cn1cnnc1CN1CCC2(CCC(=O)N(Cc3ccccc3)C2)CC1

>  <cytotoxicity at 70.5 h (%)>
-4.83

$$$$
>  <compound>
Cc1[nH]c2ccccc2c1-c1ccnc(N[C@@H](C)CO)n1

>  <cytotoxicity at 70.5 h (%)>
-3.05

$$$$
>  <compound>
O=C(NCC1CCCO1)c1cc(-c2cccnc2)c2cnccc2n1 (stereo not given)

>  <cytotoxicity at 70.5 h (%)>
-3.09

$$$$
>  <compound>
O=C(NC1CC1)[C@H]1CN(Cc2ccccc2)C[C@@H]1C(=O)c1ccccc1

>  <cytotoxicity at 70.5 h (%)>
-3.57

$$$$
>  <compound>
Cc1nc(CNC(=O)NC2CC(C)(C)OC2(C)C)sc1C (stereo not given)

>  <cytotoxicity at 70.5 h (%)>
-9.18

$$$$
>  <compound>
O=C(NCc1ccncc1)Nc1cc(C(F)(F)F)c[nH]c1=O

>  <cytotoxicity at 70.5 h (%)>
-2.18

$$$$
>  <compound>
O=C(NCC1CC1)Nc1cccc(N2CCN(CC3CC3)CC2)c1

>  <cytotoxicity at 70.5 h (%)>
-0.269

$$$$
>  <compound>
CN(CC1COc2ccccc2O1)C(=O)NCCCn1cccn1 (stereo not given)

>  <cytotoxicity at 70.5 h (%)>
-8.71

$$$$
>  <compound>
CCc1nc(CN2CCCC(N(C)Cc3nc(C)c(C)o3)C2)no1 (stereo not given)

>  <cytotoxicity at 70.5 h (%)>
-74.1

$$$$
>  <compound>
Cn1cnnc1CN1CCC2(CCCN(C3CCCC3)C2=O)C1 (stereo not given)

>  <cytotoxicity at 70.5 h (%)>
1.29

$$$$
>  <compound>
CCCc1nnc(N2CCN(c3ccccc3OCC)CC2)o1

>  <cytotoxicity at 70.5 h (%)>
-4.12

$$$$
>  <compound>
N#Cc1ccc(C(=O)N2CCn3c(Cn4cccn4)cnc3C2)cc1

>  <cytotoxicity at 70.5 h (%)>
7.14

$$$$
>  <compound>
Cc1ccc(S(=O)(=O)NC(=O)COc2cccc(C#N)c2)c(C)c1

>  <cytotoxicity at 70.5 h (%)>
14.4

$$$$
>  <compound>
CC1c2ncc(Cn3cccn3)n2CCN1S(C)(=O)=O (stereo not given)

>  <cytotoxicity at 70.5 h (%)>
19.8

$$$$
>  <compound>
CCOc1cc(CN(C)CCCO)ccc1OC(F)F

>  <cytotoxicity at 70.5 h (%)>
-6.49

$$$$
>  <compound>
Cc1nn(CCO)cc1CN1CCCC1c1nc2c(C)cccc2[nH]1 (stereo not given)

>  <cytotoxicity at 70.5 h (%)>
-2.76

$$$$
>  <compound>
Cc1cc(N(C)C)nc(C2(C)CCNCC2)n1

>  <cytotoxicity at 70.5 h (%)>
46.3

$$$$
>  <compound>
CN(CC(N)=O)S(=O)(=O)c1ccc(F)cc1F

>  <cytotoxicity at 70.5 h (%)>
-7.55

$$$$
>  <compound>
COc1ccccc1C(C)CC(=O)N1CC[C@H](O)C1 (stereo not given in full)

>  <cytotoxicity at 70.5 h (%)>
-1.27

$$$$
>  <compound>
CCC(CC)CNCC1(S(C)(=O)=O)CCOCC1

>  <cytotoxicity at 70.5 h (%)>
-3.95

$$$$
>  <compound>
NS(=O)(=O)CCN1CCN(c2ccccc2O)CC1

>  <cytotoxicity at 70.5 h (%)>
-0.407

$$$$
>  <compound>
O=C(c1cc(CC2(NCC3CCCCC3)COC2)no1)N1CCCCC1

>  <cytotoxicity at 70.5 h (%)>
-6.68

$$$$
>  <compound>
CN1CCN(Cn2nc(-c3cccs3)ccc2=O)CC1

>  <cytotoxicity at 70.5 h (%)>
-29.8

$$$$
>  <compound>
Cc1ncsc1C(=O)NCCn1nc(C2CCNC2)c2cccnc21 (stereo not given)

>  <cytotoxicity at 70.5 h (%)>
-14.3

$$$$
>  <compound>
O=C(CCC1CCCC1)N1CCC(O)(C(F)(F)F)C1 (stereo not given)

>  <cytotoxicity at 70.5 h (%)>
-0.869

$$$$
>  <compound>
CN(Cc1ccco1)[C@@H]1CN(Cc2cccs2)C[C@@H]2CCCO[C@@H]21

>  <cytotoxicity at 70.5 h (%)>
-6.25

$$$$
>  <compound>
CCC1CN(c2ncnc3nc[nH]c23)CCO1 (stereo not given)

>  <cytotoxicity at 70.5 h (%)>
11.7

$$$$
>  <compound>
Cc1cnn(C2CCCN(C(=O)CCc3cnn(C)c3)C2)c1 (stereo not given)

>  <cytotoxicity at 70.5 h (%)>
-4.01

$$$$
>  <compound>
CNc1nc(C2CCCN2)nc2c1CCN(S(=O)(=O)C1CCCCC1)C2 (stereo not given)

>  <cytotoxicity at 70.5 h (%)>
12.5

$$$$
>  <compound>
c1nc(N2CCCC2)cnc1C1CCNCC1

>  <cytotoxicity at 70.5 h (%)>
-6.46

$$$$
>  <compound>
O=C(c1ccncc1F)N1C[C@@H]2OCCN(CC3CC3)[C@@H]2C1

>  <cytotoxicity at 70.5 h (%)>
-12.9

$$$$
>  <compound>
O=C(Nc1ccc(F)cc1)C1CSCN1 (stereo not given)

>  <cytotoxicity at 70.5 h (%)>
-10.2

$$$$
>  <compound>
Cc1cc(Nc2nc(C)cc(C)n2)cc(C2CCCN2)n1 (stereo not given)

>  <cytotoxicity at 70.5 h (%)>
-7.57

$$$$
>  <compound>
N#Cc1ccc(N2CCN(c3cnccn3)CC2)c(C(F)(F)F)c1

>  <cytotoxicity at 70.5 h (%)>
2.94

$$$$
